B1: Ankyrin repeat and SOCS box protein 14, residues 532 to 572; numbered along this chain, A6NK59 (parent)
chain: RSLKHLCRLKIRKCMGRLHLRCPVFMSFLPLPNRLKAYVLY

Variants of: B1
test: abundance fitness (aPCA) (normalised: wild type 0, dead -1); higher = more abundant; growth selection in yeast, the domain comes from the species named
statedConditions: Homo sapiens
Classify as follows. Reported abundance fitness greater than or equal to -0.08: True. Reported abundance fitness below: False.

1. F28L	True
2. M26D	True
3. F28V	False
4. V39I	True
5. S27P	False
6. N33W	False
7. K4V	False
8. P23M	True
9. R34Q	False
10. A37C	False
11. L35H	False
12. L35S	False
13. F28E	True
14. L3H	False
15. C14A	True
16. K10C	False
17. R1N	True
18. C14G	True
19. R1E	True
20. K10E	False
21. R17E	True
22. F28R	True
23. P23F	True
24. R8L	True
25. C7F	True
26. M26T	True
27. M26Y	False
28. C22W	True
29. L6D	True
30. L29I	True
31. S27E	True
32. L9M	True
33. L40P	False
34. L3W	True
35. S2V	False
36. R34P	False
37. M26S	True
38. R34M	False
39. K4P	False
40. P32Y	True
41. R8A	True
42. R17K	True
43. C22Q	False
44. S27V	False
45. A37P	False
46. V24T	True
47. L29D	False
48. R1G	True
49. M26K	True
50. P32M	True
51. R12V	True
52. K13V	False
53. A37Q	True
54. L3C	False
55. H5E	True
56. P30F	False
57. L3V	False
58. L35G	False
59. C22P	False
60. L40V	False
61. R12P	False
62. Y41R	True
63. K13S	True
64. K4G	False
65. C22F	True
66. S2T	False
67. P23C	True
68. Y38E	False
69. A37V	False
70. L29T	False
71. P30A	True
72. M15A	False
73. K13I	False
74. K13M	False
75. H5A	False
76. P23V	True
77. M26R	True
78. R21H	False
79. P32I	True
80. Y38G	False
81. V39Q	False
82. G16Q	True
83. K10A	True
84. L40D	False
85. R21G	True
86. K4A	True
87. F25A	False
88. L31T	False
89. L3G	False
90. G16K	True
91. L18F	True
